assay: food effect study, 5 × 100 mg capsules (KD025-105); type: in vivo, human; details: male, human, plasma, oral, 500 mg, 5 × 100 mg capsules, fasted; read-out: AUC0-24, arithmetic mean (SD)
experimental.endpoint: AUC(0-t) (µg·h/mL)
One number for each entry, in µg·h/mL.

Reported AUC(0-t) ( CC(C)NC(=O)COc1cccc(-c2nc(Nc3ccc4[nH]ncc4c3)c3ccccc3n2)c1 [Belumosudil] ) = 7.98

---

Assay: phase I two-part drug-drug interaction study, plasma pharmacokinetics (Example 1)
Assay type: in vivo, human
Details: male, human, plasma, oral, 200 mg belumosudil single dose + itraconazole; read-out: t1/2, geometric mean (geometric CV %) (converted)
Experimental: The secondary objective was to provide additional information on the safety and tolerability of this dose regimen in healthy males. This was a single center, non-randomized, DDI study in 35 (Part 1) and 38 (Part 2) healthy males. […] For each comparison, PK parameters were natural log transformed and analyzed using mixed effect modeling with treatment included as a fixed effect and subject as a random effect. Adjusted geometric mean ratios (GMRs) and corresponding 90% CIs were calculated.
experimental.endpoint: half-life (h)
Numbers only, in h.

Reported half-life ( CC(C)NC(=O)COc1cccc(-c2nc(Nc3ccc4[nH]ncc4c3)c3ccccc3n2)c1 [Belumosudil] ) = 8.27

---

experiment: food effect study, 5 × 100 mg capsules (KD025-105); assay type: in vivo, human; conditions: male, human, plasma, oral, 500 mg, 5 × 100 mg capsules, fasted; read-out: AUC0-24, geometric mean (geometric CV %)
experimental.endpoint: AUC(0-t) (µg·h/mL)
Numbers only, in µg·h/mL.

Reported AUC(0-t) ( `CC(C)NC(=O)COc1cccc(-c2nc(Nc3ccc4[nH]ncc4c3)c3ccccc3n2)c1` ) = 7.6

---

assay: phase I two-part drug-drug interaction study, plasma pharmacokinetics (Example 1); assay type: in vivo, human; conditions: male, human, plasma, oral, 200 mg belumosudil BID + omeprazole, second dose; read-out: Cmax, geometric mean (geometric CV %)
experimental.endpoint: Cmax (ng/mL)
Answers are plain numbers, in ng/mL.

Reported Cmax ( CC(C)NC(=O)COc1cccc(-c2nc(Nc3ccc4[nH]ncc4c3)c3ccccc3n2)c1 [Belumosudil] ) = 903

---

test: phase I two-part drug-drug interaction study, plasma pharmacokinetics (Example 1); type: in vivo, human; details: male, human, plasma, oral, 200 mg, 200 mg belumosudil single dose alone; read-out: AUClast, arithmetic mean (SD)
experimental.endpoint: AUC(0-t) (ng·h/mL)
One number for each entry, in ng·h/mL.

Reported AUC(0-t) ( `CC(C)NC(=O)COc1cccc(-c2nc(Nc3ccc4[nH]ncc4c3)c3ccccc3n2)c1` ) = 9220

---

experiment: phase I two-part drug-drug interaction study, plasma pharmacokinetics (Example 1); type: in vivo, human; conditions: male, human, plasma, oral, 200 mg belumosudil single dose + itraconazole; read-out: AUClast, arithmetic mean (SD)
experimental.endpoint: AUC(0-t) (ng·h/mL)
Numbers only, in ng·h/mL.

Reported AUC(0-t) ( `CC(C)NC(=O)COc1cccc(-c2nc(Nc3ccc4[nH]ncc4c3)c3ccccc3n2)c1` ) = 11600

---

experiment: relative bioavailability/food effect study, tablet and capsule (KD025-106); type: in vivo, human; conditions: male, human, plasma, oral, 200 mg, 200 mg tablet; read-out: delay in Tmax with fed administration
experimental.endpoint: Tmax (min)
Numbers only, in min.

Reported Tmax ( CC(C)NC(=O)COc1cccc(-c2nc(Nc3ccc4[nH]ncc4c3)c3ccccc3n2)c1 [Belumosudil] ) = 30
